Entry source: ChEMBL document CHEMBL3988442

# System: Wolbachia pipientis
# test.description: Anti-Wolbachia Cell-Based Screen
# Assay type: functional
# Parameters: scale not given: in the data most compounds retested in dose-response had high values
# assay.setup: 5 µM
Out of some 48,000 compounds screened, about 13,000 (27%) showed an effect of 50% or more. The list shows a part of the results.
Parameter Percent Effect: see the listing below.
Give just the numeric value; % need not be written.

Lookup: // Percent Effect lookup, key: CC(NCCNS(=O)(=O)c1cccc(Cl)c1)C1CCOCC1 (stereo not drawn)
Found: -16.43

Lookup: Item COc1cc(N2CCC3(CCCN3Cc3cnn(C)c3)CC2)ncn1.O=C(O)C(F)(F)F has what recorded Percent Effect?
Found: 0.3231

Further cases:
Lookup: # Percent Effect lookup, item CC(C)COCC1CN(Cc2ccc3c(c2)OCO3)Cc2ncn(C)c21.O=C(O)C(F)(F)F.O=C(O)C(F)(F)F (stereo not drawn)
Found: 29.31

----------
# Test system: Wolbachia pipientis
# test.description: Anti-Wolbachia Cell-Based Screen
# Type: functional
# Set-up: scale not given: in the data most compounds retested in dose-response had high values
# assay.setup: 5 µM
The whole screen tested about 48,000 compounds, of which about 13,000 (27%) showed an effect of 50% or more. Some of the results follow.
In this section, each of the compounds is paired with its reported Percent Effect.
Number in %, nothing else.

Lookup: For the compound COc1ccc(C(=O)N2C[C@@H](CN3CCOCC3)[C@@H](CO)C2)c(C)c1 , what Percent Effect is on record?
Found: -1.833

Lookup: Item CCN(CC)C(=O)CCNC(=O)c1c[nH]c2ccc(OC)cc12 has what recorded Percent Effect?
Found: 24.42

Now consider the entry below.
Lookup: // returns reported Percent Effect for input COc1ccc2[nH]cc(C(=O)N3C[C@@H](O)[C@H](N4CCCC4)C3)c2c1
Found: 103.4

----------
# Tested on: Wolbachia pipientis
# test.description: Anti-Wolbachia Cell-Based Screen
# Format: functional
# Set-up: scale not given: in the data most compounds retested in dose-response had high values
# assay.setup: 5 µM
Hit rate of the full screen: of about 48,000 compounds, about 13,000 (27%) showed an effect of 50% or more. The list shows a part of the results.
readout.label: Percent Effect (%)
Write the number in % without appending the unit.

Below, 5 molecules whose answers are already recorded.
Lookup: Please give the measured Percent Effect for this molecule: COC(=O)N(C)CCCC(=O)Nc1[nH]nc(-c2ccncc2)c1C
Found: -7.715

Lookup: Quick one: Percent Effect of CN(C)C(=O)c1ccc2c(c1)N(C)C(CC(=O)NC(CO)CO)CO2 (configuration not stated) ?
Found: 0.9161

Lookup: Please report the recorded Percent Effect for CCc1cc(N[C@@H](CO)C(N)=O)n2nc(C)c(C)c2n1 .
Found: 2.16

Lookup: Which Percent Effect value belongs to Cc1nc(CN2CCc3ncnc(-c4ccsc4)c3CC2)cs1.O=C(O)C(F)(F)F ?
Found: -15.15

Lookup: Give the measured Percent Effect of c1cc(-c2noc(CN3CCc4c(ncn4C4CC4)C3)n2)cs1 .
Found: 0.1339

More entries:
Lookup: Need Percent Effect, item Cn1cnc2c1CCN(Cc1csc(C3CCCCC3)n1)C2
Found: 104.6

Lookup: Returns the measured Percent Effect for the input molecule. Input: CCc1nc(CN2CCc3c(ncn3C3CC3)C2)cs1
Found: 49.69

Lookup: // query Percent Effect value for entry Cc1ccccc1C1(CNC(=O)c2cccc(S(C)(=O)=O)c2)CC1
Found: 2.045

Lookup: Can you share its Percent Effect? I mean this molecule: COc1ccc(C(=O)NC2CC2)c(OC2CCN(CC3CC3)CC2)c1
Found: 4.837

Lookup: Fill in: Percent Effect of Cc1ccc(-c2nc(CN3CCc4c(ncn4C)C3)cs2)o1 is ___
Found: 0.8085

Lookup: Please give the measured Percent Effect for this molecule: Cc1ccc(C)c(OCC(O)CN(C)CC(=O)Nc2cc(C)on2)c1 (configuration not stated)
Found: 16.51

Lookup: State the recorded Percent Effect for this entry: O=S(=O)(c1ccc2c(c1)CCC2)N1CCCC(Cn2cncn2)C1 (configuration not stated)
Found: 1.903
